# Tested on: P. falciparum 3D7 trophozoites
# Assay notes: Metabolomic fingerprint profiling LC-MS
# Assay type: cell-based, Plasmodium falciparum
# Study conditions: S2 Table Metabolomics; metabolite N-acetyl-L-ornithine
This listing pairs compounds with measured N-acetyl-L-ornithine.

Compound	N-acetyl-L-ornithine
CCOC(=O)C1=C(c2ccccc2)N=c2sc(=Cc3cc(C)n(-c4ccc(F)cc4)c3C)c(=O)n2C1c1cccc(OC)c1OC (stereo not drawn)	-0.1781
COc1ccc(-c2nc3cc(Cc4ccc5[nH]c(-c6ccc(OC)cc6)nc5c4)ccc3[nH]2)cc1	-1.162
Cc1cc(Nc2ccc(C)c(Cl)c2)n2nc(C(F)(F)F)nc2n1	-0.2526

Recorded values, source paper PMC4965013.
